Data origin: patent US8536168B2

- Test system: Gli-luciferase activity
- run_description: Reporter gene assay (RGA) in TMHh12 cells, antagonism of Gli-luciferase activity in the presence of a Smo agonist
- Assay type: cell-based
- measurement_conditions: 25 nM small molecule Smo agonist, read-out: RGA (25 nM Smo agonist) IC50
metric: IC50

molecule: c1ccc(C2CCN(c3nnc(Cc4ccncc4)c4ccccc34)CC2)cc1
assayed_system: Gli-luciferase activity
metric: IC50
recorded_measurement: 1 to 10 µM
//
molecule: Cc1cc(Cc2ccccc2)nnc1N1CCN(c2ccc(C(F)(F)F)cn2)CC1
assayed_system: Gli-luciferase activity
metric: IC50
recorded_measurement: 1 to 10 µM
//
molecule: c1ccc(Cc2nnc(N3CCC(c4nc5ccccc5[nH]4)CC3)c3ccccc23)cc1
assayed_system: Gli-luciferase activity
metric: IC50
recorded_measurement: 0.1 to 1 µM
//
molecule: N#Cc1ccc(N2CCN(c3ncc(Cc4ccccc4)c4ccccc34)CC2)nc1
assayed_system: Gli-luciferase activity
metric: IC50
recorded_measurement: 0.1 to 1 µM
//
molecule: CNC(=O)NCc1ccc(N2CCN(c3nnc(Cc4ccccc4)c4ccccc34)CC2)nc1
assayed_system: Gli-luciferase activity
metric: IC50
recorded_measurement: 0.1 to 1 µM
//
molecule: CN(CCO)C(=O)c1ccc(N2CCN(c3nnc(Cc4ccc(F)cc4)c4ccccc34)CC2)nc1
assayed_system: Gli-luciferase activity
metric: IC50
recorded_measurement: 0.1 to 1 µM
//
molecule: COCC(=O)NCc1ccc(N2CCN(c3nnc(Cc4ccccc4)c4ccccc34)CC2)cc1 [Example 78b]
assayed_system: Gli-luciferase activity
metric: IC50
recorded_measurement: 0.1 to 1 µM
//
molecule: N#Cc1ccc(N2CCN(c3nnc(Cc4ccccc4Cl)c4ccccc34)CC2)nc1
assayed_system: Gli-luciferase activity
metric: IC50
recorded_measurement: 1 to 10 µM
//
molecule: FC(F)(F)c1ccc(N2CCN(c3nnc(Cc4ccccc4)c4c3C=CCC4)CC2)nc1
assayed_system: Gli-luciferase activity
metric: IC50
recorded_measurement: 0.1 to 1 µM
//
molecule: Cc1ccc(N2CCN(c3nnc(Cc4ccnc(C)c4)c4ccccc34)CC2C)cc1 (stereo not shown)
assayed_system: Gli-luciferase activity
metric: IC50
recorded_measurement: 10 to 40 µM
//
molecule: O=C1CN(c2nnc(Cc3ccccc3)c3ccccc23)CCN1c1ccccc1
assayed_system: Gli-luciferase activity
metric: IC50
recorded_measurement: 1 to 10 µM
//
molecule: c1ccc(Cc2nnc(N3CCN(c4ccc5ccccc5n4)CC3)c3ccccc23)cc1
assayed_system: Gli-luciferase activity
metric: IC50
recorded_measurement: 0.1 to 1 µM
//
molecule: CC(=O)c1cnc(N2CCN(c3nnc(Cc4ccccc4)c4ccccc34)CC2)cn1
assayed_system: Gli-luciferase activity
metric: IC50
recorded_measurement: 0.1 to 1 µM
//
molecule: COC(=O)c1cnc(N2CCN(c3nnc(Cc4ccccc4)c4ccccc34)CC2)nc1
assayed_system: Gli-luciferase activity
metric: IC50
recorded_measurement: 1 to 10 µM
//
molecule: FC(F)(F)c1ccc(N2CCN(c3nnc(Cc4ccccc4)c4ccccc34)CC2)cc1
assayed_system: Gli-luciferase activity
metric: IC50
recorded_measurement: 1 to 10 µM
//
molecule: COC(=O)c1cnc(N2CCN(c3nnc(Cc4ccccc4)c4ccccc34)C[C@H]2C)cn1
assayed_system: Gli-luciferase activity
metric: IC50
recorded_measurement: 0.1 to 1 µM
//
molecule: CC(C)(O)c1ccc(N2CCN(c3nnc(Cc4ccccc4Cl)c4ccccc34)CC2)nc1
assayed_system: Gli-luciferase activity
metric: IC50
recorded_measurement: 0.1 to 1 µM
//
molecule: C[C@H]1CN(c2ccc(C(C)(C)O)cn2)CCN1c1nnc(Cc2ccccc2)c2ccccc12
assayed_system: Gli-luciferase activity
metric: IC50
recorded_measurement: < 0.1 µM
//
molecule: CCOC(=O)c1cnc(N2CCN(c3nnc(Cc4ccccc4)c4ccccc34)CC2)nc1C(F)(F)F
assayed_system: Gli-luciferase activity
metric: IC50
recorded_measurement: < 0.1 µM
//
molecule: CCN(CCO)C(=O)c1ccc(N2CCN(c3nnc(Cc4ccccc4)c4ccccc34)CC2)nc1 [Example 54d]
assayed_system: Gli-luciferase activity
metric: IC50
recorded_measurement: < 0.1 µM
//
molecule: CC(C)C(O)c1ccc(N2CCN(c3nnc(Cc4ccccc4)c4ccccc34)CC2)nc1 (stereo not shown)
assayed_system: Gli-luciferase activity
metric: IC50
recorded_measurement: < 0.1 µM
//
molecule: N#Cc1ccc(N2CCN(c3nnc(Cc4ccccc4)c4ccccc34)CC2)nc1
assayed_system: Gli-luciferase activity
metric: IC50
recorded_measurement: 1 to 10 µM
//
molecule: CN(C)C(=O)Nc1ccc(N2CCN(c3nnc(Cc4ccccc4)c4ccccc34)CC2)nc1
assayed_system: Gli-luciferase activity
metric: IC50
recorded_measurement: 0.1 to 1 µM
//
molecule: CN(C)CC(C)(O)c1cnc(N2CCN(c3nnc(Cc4ccccc4)c4ccccc34)CC2)cn1 (stereo not shown)
assayed_system: Gli-luciferase activity
metric: IC50
recorded_measurement: 0.1 to 1 µM
//
molecule: c1ccc(Cc2nnc(N3CCC(c4ccccc4)CC3)c3ccccc23)cc1
assayed_system: Gli-luciferase activity
metric: IC50
recorded_measurement: 1 to 10 µM

====

- System: Gli-luciferase activity
- run_description: Reporter gene assay (RGA) in TMHh12 cells, antagonism of Gli-luciferase activity in the presence of a Smo agonist
- Assay type: cell-based
- measurement_conditions: 25 nM small molecule Smo agonist, read-out: RGA (25 nM Smo agonist) IC50
pIC50: −log10 of the molar value.
Below, each entry is listed with its recorded pIC50.

molecule: OCc1ccc(N2CCN(c3nnc(Cc4ccccc4)c4ccccc34)CC2)nc1 [Example 158]
pIC50: 5.00 to 6.00
--
molecule: FC(F)(F)c1c[nH]c(C2CCN(c3nnc(Cc4ccccc4)c4ccccc34)CC2)n1 [Example 112]
pIC50: 6.00 to 7.00
--
molecule: N#Cc1ccc(N2CCN(c3nnc(Cc4cccc(Cl)c4)c4ccccc34)CC2)nc1 [Example 60]
pIC50: 6.00 to 7.00

====

Quick record of pIC50 values for mouse Smoothened receptor (Mus musculus, UniProt P56726).
pIC50: −log10 of the molar value.

compound: CN(C)C(=O)OCc1ccc(N2CCN(c3nnc(Cc4ccccc4)c4ccccc34)CC2)nc1 [Example 160]
pIC50: 6.00 to 7.00

compound: FC(F)(F)c1ccc(N2CCC(c3cn(Cc4ccccc4)c4ccccc34)CC2)nc1 [Example 97]
pIC50: 6.00 to 7.00

compound: c1ccc(Cc2nnc(N3CCN(c4ccccc4)CC3)c3ccccc23)cc1 [Example 106]
pIC50: 5.00 to 6.00

compound: c1ccc(Cc2nnc(N3CCN(c4ccc(CNC5COC5)cn4)CC3)c3ccccc23)cc1 [Example 230]
pIC50: 6.00 to 7.00

compound: Cc1ccc(Cc2nnc(N3CCN(c4ccc(C#N)cn4)CC3)c3ccccc23)cc1 [Example 173]
pIC50: > 7.00

compound: CC(C)(O)c1ccc(N2CCN(c3nnc(Cc4ccccc4)c4ccccc34)CC2)nc1 [Example 54a]
pIC50: > 7.00

compound: CCC(=O)NCc1ccc(N2CCN(c3nnc(Cc4ccccc4)c4ccccc34)CC2)cc1 [Example 78a]
pIC50: 6.00 to 7.00

compound: CC(C)OC(=O)NCc1ccc(N2CCN(c3nnc(Cc4ccccc4)c4ccccc34)CC2)nc1 [Example 211]
pIC50: > 7.00

compound: CN(CCO)C(=O)c1ccc(N2CCN(c3nnc(Cc4ccc(Cl)c(Cl)c4)c4ccccc34)CC2)nc1 [Example 201]
pIC50: > 7.00

compound: O=C(NCc1ccccc1)c1ccc(N2CCN(c3nnc(Cc4ccccc4)c4ccccc34)CC2)nc1 [Example 54l]
pIC50: > 7.00

compound: OC(c1ccc(N2CCN(c3nnc(Cc4ccccc4)c4ccccc34)CC2)nc1)(C(F)(F)F)C(F)(F)F [Example 110]
pIC50: > 7.00

compound: COCCNC(=O)c1ccc(N2CCN(c3nnc(Cc4ccccc4)c4ccccc34)CC2)nc1 [Example 54f]
pIC50: 6.00 to 7.00

compound: Cc1c(Cc2ccccc2)nnc(N2CCN(c3ccc(C(F)(F)F)cn3)CC2)c1CNCc1ccccc1 [Example 241]
pIC50: 5.00 to 6.00

compound: O=C(c1ccc(N2CCN(c3nnc(Cc4ccccc4)c4ccccc34)CC2)nc1)N1CC(O)C1 [Example 54z]
pIC50: 6.00 to 7.00

compound: O=C(c1cnc(N2CCN(c3nnc(Cc4ccccc4)c4ccccc34)CC2)nc1)N1CCOCC1 [Example 54bb]
pIC50: > 7.00

====

Below, each entry is listed with its recorded pIC50.
- assayed_system: human Smoothened receptor (Homo sapiens, UniProt Q99835)
- Sequence (Q99835 28-787): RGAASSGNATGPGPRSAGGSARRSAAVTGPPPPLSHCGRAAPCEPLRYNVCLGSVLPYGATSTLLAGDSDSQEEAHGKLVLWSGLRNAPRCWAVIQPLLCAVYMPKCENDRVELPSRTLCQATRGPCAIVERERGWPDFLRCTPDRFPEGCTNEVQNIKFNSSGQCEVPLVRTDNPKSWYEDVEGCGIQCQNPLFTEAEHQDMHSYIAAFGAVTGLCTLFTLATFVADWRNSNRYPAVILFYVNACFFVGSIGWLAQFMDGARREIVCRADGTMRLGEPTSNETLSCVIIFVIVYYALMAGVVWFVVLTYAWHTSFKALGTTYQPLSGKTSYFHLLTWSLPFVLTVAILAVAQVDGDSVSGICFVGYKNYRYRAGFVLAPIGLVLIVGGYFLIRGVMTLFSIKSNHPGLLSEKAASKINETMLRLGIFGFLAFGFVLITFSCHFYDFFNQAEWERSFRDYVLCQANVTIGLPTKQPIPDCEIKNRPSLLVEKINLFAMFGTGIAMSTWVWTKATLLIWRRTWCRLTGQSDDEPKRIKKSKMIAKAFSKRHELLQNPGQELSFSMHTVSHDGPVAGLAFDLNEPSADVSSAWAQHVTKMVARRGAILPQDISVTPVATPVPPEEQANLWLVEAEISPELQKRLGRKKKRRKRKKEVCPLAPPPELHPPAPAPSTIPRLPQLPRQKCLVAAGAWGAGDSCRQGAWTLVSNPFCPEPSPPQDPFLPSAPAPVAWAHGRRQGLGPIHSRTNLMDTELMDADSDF
- run_description: Smo binding assay, displacement of radio-labeled smoothened agonist, filter binding format (human)
- measurement_conditions: displacement of small molecule agonist of Smoothened, read-out: Human Smo bdg., IC50
pIC50: −log10 of the molar value.

compound: CC(=O)c1ccc(N2CCN(c3nnc(Cc4ccccc4)c4ccccc34)CC2)nc1 [Example 134]
pIC50: > 7.00
--
compound: C[C@@H]1CN(c2nnc(Cc3ccccc3)c3ccccc23)CCN1c1ccc(C(C)(C)O)cn1 [Example 154]
pIC50: > 7.00
--
compound: CC(=O)NCc1ccc(N2CCN(c3nnc(Cc4ccccc4)c4ccccc34)[C@@H](C)C2)nc1 [Example 216]
pIC50: > 7.00
--
compound: CCOC(=O)c1ccc(N2CCN(c3nnc(Cc4ccc(F)cc4)c4ccccc34)CC2)nc1 [Example 183]
pIC50: > 7.00
--
compound: N#Cc1ccc(N2CCN(c3nnc(Cc4ccccc4)c4ccccc34)CC2)nc1 [Example 1]
pIC50: 6.00 to 7.00
--
compound: Cc1cc(Cc2ccccc2)nnc1N1CCN(c2ccc(C#N)cn2)CC1 [Example 86]
pIC50: 5.00 to 6.00
